Biological target: Human A2a Adenosine Receptor (Homo sapiens, UniProt P29274)
Construct: purchased Receptor Biology, Inc., Beltsville, Md; RB-HA2a
Sequence (P29274 whole entry): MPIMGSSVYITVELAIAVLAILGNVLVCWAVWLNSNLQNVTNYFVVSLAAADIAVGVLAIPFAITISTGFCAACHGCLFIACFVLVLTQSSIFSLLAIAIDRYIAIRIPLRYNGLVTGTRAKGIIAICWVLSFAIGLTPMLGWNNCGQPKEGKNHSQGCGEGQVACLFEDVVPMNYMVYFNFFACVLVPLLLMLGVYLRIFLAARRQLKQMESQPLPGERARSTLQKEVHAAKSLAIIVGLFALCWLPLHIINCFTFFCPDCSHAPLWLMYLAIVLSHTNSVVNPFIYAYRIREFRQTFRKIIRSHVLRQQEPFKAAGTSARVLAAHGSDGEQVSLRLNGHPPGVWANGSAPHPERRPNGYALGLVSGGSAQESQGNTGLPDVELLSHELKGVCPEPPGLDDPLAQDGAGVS
Assay: Human Adenosine A2a Receptor Competition Binding Assay ([3H]-SCH 58261 displacement)
Settings: Table I; human A2a membranes, [3H]-SCH 58261 0.5 nM, Cheng-Prusoff; read-out: Activity (Ki)
Threshold check on Ki: strictly below 6 nM is Yes; on or above 6 nM is No.

Worked examples, 3 molecules total:
ENTRY SMILES: N#C/N=c1\n(Cc2ccccc2)nc2c(N)nc3ccccc3n12
GROUP LABEL: Yes
//
ENTRY SMILES: Cc1cccc2nc(N)c3nn(Cc4ccccc4)c(=O)n3c12
GROUP LABEL: No
//
ENTRY SMILES: Nc1ccc2c(c1)nc(N)c1nn(Cc3ccccc3)c(=O)n12
GROUP LABEL: Yes

In plain terms, does Nc1nc2cc(CO)ccc2n2c(=O)n(Cc3ccccc3)nc12 come in under 6 nM for Ki?
No

Can you handle Nc1nc2ccccc2n2c(=O)n(Cc3ccc(F)cc3)nc12 next?
Yes

###

Target: Human A2a Adenosine Receptor (Homo sapiens)
Construct: purchased Receptor Biology, Inc., Beltsville, Md; RB-HA2a
Test: Human Adenosine A2a Receptor Competition Binding Assay ([3H]-SCH 58261 displacement)
Conditions: Table I; human A2a membranes, [3H]-SCH 58261 0.5 nM, Cheng-Prusoff; read-out: Activity (Ki)
Procedure: Human Adenosine A2a Receptor Competition Binding Assay Protocol A2a: Human A2a Adenosine Receptor membranes, Catalog #RB-HA2a, Receptor Biology, Inc., Beltsville, Md. Dilute to 17 μg/100 μl in membrane dilution buffer (see below). Membrane dilution buffer: Dulbecco's Phosphate Buffered Saline (Gibco/BRL)+ 10 mM MgCl2. Compound Dilution Buffer: Dulbecco's Phosphate Buffered Saline (Gibco/BRL)+10 mM MgCl2 supplemented with 1.6 mg/ml methyl cellulose and 16% DMSO. Prepared fresh daily. […]
Please respond with reported pKi for every item in the list.
Numbers only, as −log10 of the molar value.

ENTRY SMILES: Nc1nc2ccc(CO)cc2n2c(=O)n(Cc3ccccc3)nc12
pKi: 7.22

Report pKi for each item below.
1. Nc1nc2cc(F)c(F)cc2n2c(=O)n(Cc3c(F)cccc3F)nc12
2. Nc1nc2ccccc2n2c(=O)n(Cc3c(F)cccc3C(F)(F)F)nc12

[9.40, 8.60]

Report pKi for each item below.
1. Nc1nc2cc(C(F)(F)F)ccc2n2c(=O)n(Cc3c(F)cccc3F)nc12
2. Nc1nc2ccccc2n2c(=O)n(Cc3ccccc3C(F)(F)F)nc12

8.74
8.74

###

Please respond with reported pKi for every item in the list.
Molecular target: Human A2a Adenosine Receptor (Homo sapiens, UniProt P29274)
Construct: purchased Receptor Biology, Inc., Beltsville, Md; RB-HA2a
Assay: Human Adenosine A2a Receptor Competition Binding Assay ([3H]-SCH 58261 displacement)
Settings: Table I; human A2a membranes, [3H]-SCH 58261 0.5 nM, Cheng-Prusoff; read-out: Activity (Ki)
One number for each entry, as −log10 of the molar value.

ENTRY SMILES: Nc1nc2ccccc2n2c(=O)n(CC3CC3)nc12
MEASURED ATTRIBUTE: pKi
MEAS VALUE: 7.49

ENTRY SMILES: Nc1nc2ccccc2n2c(=O)n(Cc3cccc(F)c3F)nc12
MEASURED ATTRIBUTE: pKi
MEAS VALUE: 9.00

Report pKi for each item below.
1. CC(=O)c1ccc2c(c1)nc(N)c1nn(Cc3ccccc3)c(=O)n12
2. Nc1nc2ccccc2n2c(=O)n(Cc3ccccc3)nc12
3. Nc1nc2cc(C=O)ccc2n2c(=O)n(Cc3ccccc3)nc12

8.52
9.15
8.59
